src = patent US20230416363A1

Target: T1, mPD-1-Fc (mouse; human, UniProt Q02242 25-167, limits assumed)
T1 construct: domain: IgV domain; not shown: human IgG1 Fc
T1 sequence (looked up): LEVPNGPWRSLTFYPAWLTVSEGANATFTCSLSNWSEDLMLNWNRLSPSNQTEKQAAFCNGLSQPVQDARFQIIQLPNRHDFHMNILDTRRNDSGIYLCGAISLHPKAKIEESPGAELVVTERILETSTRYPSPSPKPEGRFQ
Assay: SPR Biacore, mPD1-Fc
parameter measured: pKd
Numbers only, as −log10 of the molar value.

In: Quote pKd reported for m4D1 (antibody, V domains shown, R3A9 derivative) VH: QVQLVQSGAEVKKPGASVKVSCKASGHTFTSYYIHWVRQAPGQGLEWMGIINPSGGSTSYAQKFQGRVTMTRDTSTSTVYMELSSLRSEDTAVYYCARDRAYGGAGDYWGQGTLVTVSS VL: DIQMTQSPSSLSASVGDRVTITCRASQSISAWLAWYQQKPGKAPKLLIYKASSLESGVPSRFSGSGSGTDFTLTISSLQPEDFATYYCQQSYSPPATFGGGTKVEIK please.
Out: 8.57
